Assay: ATG_TCF_b_cat_CIS: Attagene CIS-FACTORIAL HepG2 Assay for human T-Cell-Factor with beta-catenin (TCF/b-cat) (AID 2282965)
Details: HepG2 TCF/beta-catenin cis-reporter transcription, actives raise or lower the signal
The source made the active and inactive calls. How the source made its calls: active means hit-call score of the fitted dose curve at least 0.9, where 1 is the maximum; inactive means score below 0.9.
Outcome field: choose from True (active), False (inactive)

The examples below pair each entry with its known result.
compound: N#CCCOCCC#N
category: False
//
compound: OCC(F)(F)C(F)(F)C(F)(F)CO
category: False
//
compound: OCCCC(F)(F)C(F)(F)C(F)(F)C(F)(F)C(F)(F)C(F)(F)C(F)(F)C(F)(F)F
category: True

Could you kindly confirm the outcome this assay logged for O=C(O)CCC(F)(F)C(F)(F)C(F)(F)F ? False

Hi, do you know how O=C(c1ccccc1)c1ccc(O)cc1O came out in this test? False

I would be grateful if you could indicate the recorded call for CC(C)Nc1ccc(NC(C)C)c2c1C(=O)c1ccccc1C2=O . False

Outcome logged for CSc1ccc(Cl)cc1 in this assay: False

Which result was noted for this compound in the test: CCn1c2ccccc2c2ccccc21 False

Entry CCCCC(CC)COC(=O)c1ccc(N(C)C)cc1 (stereo unspecified) : call = ? False
